- System: Escherichia coli TOP10
- Test details: shrunken log2 fold change of peptide-encoding DNA abundance (4.5 h post-induction vs induction); higher = less antimicrobial activity (less host growth inhibition)
- Study conditions: time post-induction: 4.5 h; library: site-saturation at positions 5, 18, 19, 20
The reader will find reported shrunken log2 fold change values listed item by item below.

Task: # returns recorded shrunken log2 fold change (system: Escherichia coli TOP10) for RRIRARPPRLPRPRPRPDSSPRP
Output: 0.371

Task: Which shrunken log2 fold change is reported with Escherichia coli TOP10 for this entry: RRIRCRPPRLPRPRPRPGAHPRP ?
Output: 0.0157

Task: # value lookup — system Escherichia coli TOP10, readout shrunken log2 fold change, item RRIRCRPPRLPRPRPRPEMPPRP
Output: 0.65

Task: Find shrunken log2 fold change (Escherichia coli TOP10) for the entry RRIRIRPPRLPRPRPRPLPWPRP
Output: -0.019

Task: Param readout= shrunken log2 fold change; system= Escherichia coli TOP10; entry= RRIRRRPPRLPRPRPRPTWQPRP ; returns value.
Output: 0.459

Task: # value lookup — system Escherichia coli TOP10, readout shrunken log2 fold change, item RRIRWRPPRLPRPRPRPRTFPRP
Output: 0.3

Task: Please state recorded shrunken log2 fold change (tested on Escherichia coli TOP10) of RRIRCRPPRLPRPRPRPHDAPRP;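 further: peptides expressed intracellularly from a pBAD plasmid library in pooled LB shake-flask culture, induced with 0.3% L-arabinose, DNA abundance read by NGS, three biological replicates, DESeq2 with apeglm shrinkage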
Output: -0.336
